The measured values listed here are drawn from patent EP0428132A1.

Quick record of MIC values for Saccharomyces cerevisiae A25803.
Counter-ions that a name gives are not always drawn.
Note: a bare number is incomplete; add the unit.

See these solved cases before continuing.
{"COMPOUND": "COc1cc(O)c2c(c1)C(=O)c1c(cc3c(c1O)-c1c(cc(C)c(C(=O)N[C@H](C)C(=O)O)c1O)[C@H](O[C@@H]1O[C@H](C)[C@H](N(C)C(=O)CN)[C@H](O)[C@H]1O)[C@H]3O)C2=O [Ex. 14, N-(glycyl) pradimicin B formate salt]", "RESULT": "1.6 µg/mL"}
{"COMPOUND": "CCOC(=O)CN(C)[C@@H]1[C@H](O)[C@@H](O)[C@H](O[C@H]2c3cc(C)c(C(=O)N[C@H](C)C(=O)O)c(O)c3-c3c(cc4c(c3O)C(=O)c3cc(OC)cc(O)c3C4=O)[C@@H]2O)O[C@@H]1C [Ex. 6, N-(ethoxycarbonylmethyl) pradimicin B]", "RESULT": "0.8 µg/mL"}

Record request: MIC value, item CN[C@@H]1[C@H](O)[C@@H](O)[C@H](O[C@H]2c3cc(C)c(C(=O)N[C@H](C)C(=O)O)c(O)c3-c3c(cc4c(c3O)C(=O)c3cc(OC)cc(O)c3C4=O)[C@@H]2O)O[C@@H]1C [Pradimicin B, reference compound]
0.8 µg/mL

// next record "C=CCN(C)[C@@H]1[C@H](O)[C@@H](O)[C@H](O[C@H]2c3cc(C)c(C(=O)N[C@H](C)C(=O)O)c(O)c3-c3c(cc4c(c3O)C(=O)c3cc(OC)cc(O)c3C4=O)[C@@H]2O)O[C@@H]1C"
0.8 µg/mL
